Record: pKi reported on MMP-3 (Homo sapiens).
Sequence (P08254 100-477): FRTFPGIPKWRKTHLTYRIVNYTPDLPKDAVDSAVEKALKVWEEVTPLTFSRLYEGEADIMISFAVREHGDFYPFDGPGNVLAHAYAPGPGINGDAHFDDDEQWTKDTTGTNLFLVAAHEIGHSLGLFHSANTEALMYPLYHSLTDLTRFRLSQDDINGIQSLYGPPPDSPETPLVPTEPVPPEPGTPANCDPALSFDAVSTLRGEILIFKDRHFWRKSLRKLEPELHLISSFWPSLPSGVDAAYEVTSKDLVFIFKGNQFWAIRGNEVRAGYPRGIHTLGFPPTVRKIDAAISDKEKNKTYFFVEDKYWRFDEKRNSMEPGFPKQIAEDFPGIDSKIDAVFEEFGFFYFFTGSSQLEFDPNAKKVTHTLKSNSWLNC
Please express pKi as -log10 of the molar concentration.

{"MOLECULE": "CCOC(=O)CNC(=O)c1ccc(CCC(CC(=O)c2ccc(-c3ccc(Cl)cc3)cc2)C(=O)O)cc1 (centres unmarked) [XIX]", "pKi": 6.42}

[in] Field: pKi (MMP-3 (Homo sapiens)). Entry: CCOC(=O)CNC(=O)c1ccccc1CCC(CC(=O)c1ccc(-c2ccc(Cl)cc2)cc1)C(=O)O (centres unmarked) [VIII]
[out] 6.78

[in] Next molecule: O=C(CC(CCc1cccc(C(=O)NCc2ccccc2)c1)C(=O)O)c1ccc(-c2ccc(Cl)cc2)cc1 (centres unmarked) [XV]
[out] 6.44
